TARGET OF ASSAY: UniProt P50406
Sequence (P50406 whole entry): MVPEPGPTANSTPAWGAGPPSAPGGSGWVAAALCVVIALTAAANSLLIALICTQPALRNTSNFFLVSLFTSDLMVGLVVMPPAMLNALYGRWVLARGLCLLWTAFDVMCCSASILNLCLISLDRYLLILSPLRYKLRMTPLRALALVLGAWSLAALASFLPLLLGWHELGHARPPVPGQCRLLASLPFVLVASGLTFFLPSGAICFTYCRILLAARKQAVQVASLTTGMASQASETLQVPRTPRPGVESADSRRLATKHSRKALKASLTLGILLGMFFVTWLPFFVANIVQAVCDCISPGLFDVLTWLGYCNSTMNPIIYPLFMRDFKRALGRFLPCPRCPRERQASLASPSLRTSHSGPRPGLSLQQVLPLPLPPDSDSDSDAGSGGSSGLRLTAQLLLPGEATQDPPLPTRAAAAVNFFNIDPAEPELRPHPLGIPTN
PROTOCOL: GPCR panel, cAMP or calcium FLIPR assays
Type: cell-based
MEASUREMENT SETUP: agonist
MEASURED ATTRIBUTE: EC50

For the molecule shown here, CC1CCCN1C(=O)c1nc(C(=O)NCC(C)(C)O)sc1-c1ccc(C(O)(C(F)(F)F)C(F)(F)F)c(Cl)c1Cl (stereo not shown) , give the reported EC50.
> 12.5 µM

====

TARGET OF ASSAY: 5HT1A (Homo sapiens)
Sequence (P08908 whole entry, species assumed): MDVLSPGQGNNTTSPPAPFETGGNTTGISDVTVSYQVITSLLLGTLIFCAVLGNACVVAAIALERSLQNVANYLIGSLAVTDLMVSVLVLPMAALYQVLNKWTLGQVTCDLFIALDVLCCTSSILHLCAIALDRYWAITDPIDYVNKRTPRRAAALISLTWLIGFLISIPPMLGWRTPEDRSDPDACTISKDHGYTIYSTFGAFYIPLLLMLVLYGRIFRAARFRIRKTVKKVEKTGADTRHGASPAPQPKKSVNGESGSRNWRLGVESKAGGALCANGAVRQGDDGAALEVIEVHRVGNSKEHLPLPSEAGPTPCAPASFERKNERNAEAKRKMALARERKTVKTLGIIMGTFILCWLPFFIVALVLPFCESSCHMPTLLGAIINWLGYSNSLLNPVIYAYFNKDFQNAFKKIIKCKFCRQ
PROTOCOL: GPCR panel, cAMP or calcium FLIPR assays
Type: cell-based
MEASUREMENT SETUP: agonist
MEASURED ATTRIBUTE: EC50

// query EC50 value for entry CC1CCCN1C(=O)c1nc(C(=O)NCC(C)(C)O)sc1-c1ccc(C(O)(C(F)(F)F)C(F)(F)F)c(Cl)c1Cl (stereo not shown) [JNJ-61803534]
> 12.5 µM
